Below, each entry is listed alongside its reported viability, T/C.
# System: 454973-116-R2-J3-PDC complex spheroid viability;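 note: spheroids exposed to drugs for seven days before measurement; percent viability relative to DMSO vehicle control wells taken as 100%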
# protocol.details: Anticancer human tumor 454973-116-R2-J3-PDC patient-derived pancreatic carcinoma cell line growth inhibition [POLQ]
# test.conditions: second compound 3.16 µM; first compound 0.0316 µM; active compounds read low
metric: viability, T/C (%)

1) COc1cccc2c1C(=O)c1c(O)c3c(c(O)c1C2=O)CC(O)(C(=O)CO)CC3OC1CC(N)C(O)C(C)O1 (configuration not stated) + Cc1cccc(N(C)C(=O)C2C(O)CCN2c2nc(C)cc(C(F)(F)F)c2C#N)c1; 56.3
2) Nc1ccn(C2OC(CO)C(O)C2(F)F)c(=O)n1 (configuration not stated) + Cc1cccc(N(C)C(=O)C2C(O)CCN2c2nc(C)cc(C(F)(F)F)c2C#N)c1; 16.9
3) COc1cccc(OCCCN)c1-c1cc(Nc2cnc(C#N)cn2)n[nH]1 + COC1C(OC(N)=O)C(O)C(Oc2ccc3c(O)c(NC(=O)c4ccc(O)c(CC=C(C)C)c4)c(=O)oc3c2C)OC1(C)C; 11
4) COc1cc2cc(C(=O)CCC(=O)O)sc2cc1OC + Nc1ccc(C#CCN(C(=O)Cc2ncc(C(F)(F)F)cc2C(F)(F)F)c2ccc(F)cc2)nn1; 118
5) CCCS(=O)(=O)Nc1ccc(F)c(C(=O)c2c[nH]c3ncc(-c4ccc(Cl)cc4)cc23)c1F + Nc1ccc(C#CCN(C(=O)Cc2ncc(C(F)(F)F)cc2C(F)(F)F)c2ccc(F)cc2)nn1; 116
6) CC1COCCN1c1cc(C2(S(C)(=N)=O)CC2)nc(-c2ccnc3[nH]ccc23)n1 (configuration not stated) + COC1C(OC(N)=O)C(O)C(Oc2ccc3c(O)c(NC(=O)c4ccc(O)c(CC=C(C)C)c4)c(=O)oc3c2C)OC1(C)C; 118
7) COc1ccc([C@@H](O)c2cc(-c3ncnc4cc(N5CCOCC5)ccc34)c(F)cc2Cl)nn1 + Cc1cccc(N(C)C(=O)C2C(O)CCN2c2nc(C)cc(C(F)(F)F)c2C#N)c1; 112
8) COc1cc(C2c3cc4c(cc3C(OC3OC5COC(C)OC5C(O)C3O)C3COC(=O)C23)OCO4)cc(OC)c1O (configuration not stated) + COC1C(OC(N)=O)C(O)C(Oc2ccc3c(O)c(NC(=O)c4ccc(O)c(CC=C(C)C)c4)c(=O)oc3c2C)OC1(C)C; 118
9) COc1cc(C2c3cc4c(cc3C(OC3OC5COC(C)OC5C(O)C3O)C3COC(=O)C23)OCO4)cc(OC)c1O (configuration not stated) + Nc1ccc(C#CCN(C(=O)Cc2ncc(C(F)(F)F)cc2C(F)(F)F)c2ccc(F)cc2)nn1; 107
10) COc1cccc2c1C(=O)c1c(O)c3c(c(O)c1C2=O)CC(O)(C(=O)CO)CC3OC1CC(N)C(O)C(C)O1 (configuration not stated) + Nc1ccc(C#CCN(C(=O)Cc2ncc(C(F)(F)F)cc2C(F)(F)F)c2ccc(F)cc2)nn1; 51.6
11) C=CC(=O)N1CCN(c2nc(=O)n(-c3c(C)ccnc3C(C)C)c3nc(-c4c(O)cccc4F)c(F)cc23)C(C)C1 (configuration not stated) + Cc1cccc(N(C)C(=O)C2C(O)CCN2c2nc(C)cc(C(F)(F)F)c2C#N)c1; 107
12) COc1cccc(OCCCN)c1-c1cc(Nc2cnc(C#N)cn2)n[nH]1 + Nc1ccc(C#CCN(C(=O)Cc2ncc(C(F)(F)F)cc2C(F)(F)F)c2ccc(F)cc2)nn1; 5.97
13) CCCS(=O)(=O)Nc1ccc(F)c(C(=O)c2c[nH]c3ncc(-c4ccc(Cl)cc4)cc23)c1F + COC1C(OC(N)=O)C(O)C(Oc2ccc3c(O)c(NC(=O)c4ccc(O)c(CC=C(C)C)c4)c(=O)oc3c2C)OC1(C)C; 112
14) CC1COCCN1c1cc(-c2ccnn2C)c2ccnc(-c3ccn[nH]3)c2n1 (configuration not stated) + Nc1ccc(C#CCN(C(=O)Cc2ncc(C(F)(F)F)cc2C(F)(F)F)c2ccc(F)cc2)nn1; 88.7
15) CC1COCCN1c1cc(-c2ccnn2C)c2ccnc(-c3ccn[nH]3)c2n1 (configuration not stated) + COC1C(OC(N)=O)C(O)C(Oc2ccc3c(O)c(NC(=O)c4ccc(O)c(CC=C(C)C)c4)c(=O)oc3c2C)OC1(C)C; 100
16) CCc1cc2c(N3CCc4c(cc(Cn5ccnc5)cc4-c4cn(C)nc4C(F)(F)F)C3=O)cc(C)nc2c(OC)n1 + COC1C(OC(N)=O)C(O)C(Oc2ccc3c(O)c(NC(=O)c4ccc(O)c(CC=C(C)C)c4)c(=O)oc3c2C)OC1(C)C; 109
17) CC1COCCN1c1cc(C2(S(C)(=N)=O)CC2)nc(-c2ccnc3[nH]ccc23)n1 (configuration not stated) + Nc1ccc(C#CCN(C(=O)Cc2ncc(C(F)(F)F)cc2C(F)(F)F)c2ccc(F)cc2)nn1; 116
